Assay: gradient 5% acetonitrile 3 min, to 50% in 2 min, to 85% in 15 min, held 3 min, 100 µL/min
Details: column: Zorbax Extend-C18 2.1 x 50 mm; eluents: water / acetonitrile, 0.1% formic acid
Mark each entry y if its RP-LC retention time sits below 700 s, and n for all others.

{"columns": ["molecule", "label.class"],
 "data": [
  ["COc1ccc(-c2noc(Cc3nnc(-c4ccc(OC)cc4)o3)n2)cc1", "n"],
  ["CCOc1ccc(CC(=O)N2CCN(c3cc(CC)n4cnnc4n3)CC2)cc1", "y"],
  ["Cc1ccc(C)c(C(=O)N2CCN(c3cc(-c4cccs4)[nH]n3)CC2)c1", "n"],
  ["c1cnc(N2CCN(c3nn4nnnc4c4ccccc34)CC2)nc1", "n"],
  ["CCCNC(=O)C1CCCN(c2nc3ncn(CC(=O)Nc4c(C)cc(C)cc4C)c(=O)c3s2)C1 (centres undefined)", "n"],
  ["CCCOc1ccc(CN2C[C@@H]3C(=O)N(CCCN4CCCC4=O)C(=O)[C@@H]3C2)cc1", "y"],
  ["O=C(Cn1c(C(F)(F)F)nc2cc3c(cc21)OCCO3)NCc1ccccc1", "n"],
  ["CCc1cc2c(N3CCCC(C(=O)NCCCN4CCN(CC)CC4)C3)ncnc2s1 (centres undefined)", "y"],
  ["CCOc1ccccc1CNC(=O)CCc1nnc2c3cc(-c4ccc(F)cc4)nn3ccn12", "n"]
]}

---

Entries annotated with measured RP-LC retention time
Assay: gradient 5% acetonitrile 3 min, to 50% in 2 min, to 85% in 15 min, held 3 min, 100 µL/min
Settings: column: Zorbax Extend-C18 2.1 x 50 mm; eluents: water / acetonitrile, 0.1% formic acid

{"columns": ["molecule", "RP-LC retention time [s]"],
 "data": [
  ["CCCc1ccc(S(=O)(=O)N2CCC(n3c(-c4ccco4)nc4cccnc43)C2)cc1 (stereo unspecified)", 1010],
  ["O=C(Nc1ccccc1)c1nnc(CSCC(=O)N2CCN(c3ccccn3)CC2)s1", 631],
  ["CC(=O)N1CCc2cc(N3CC(C(=O)Nc4cccc(Br)c4)CC3=O)ccc21 (stereo unspecified)", 780],
  ["O=C(NCCN1CCOCC1)c1csc(-c2ccc(N3CCCC3)nc2)n1", 542],
  ["Cn1nc(-c2nc(-c3ccccc3)no2)c2c1CCN(C(=O)Nc1cccc(Cl)c1)C2", 1050],
  ["COc1ccc(CN2CCc3nc(N4CCN(c5ncccn5)CC4)ncc3C2)cc1OC", 626],
  ["CCCCN(C)C(=O)c1ccc2c(c1)NC(=O)C(CC(C)C)N2 (stereo unspecified)", 581],
  ["Cc1ccc(CNC(=O)c2nc(-c3ccnc(N4CCCCC4)c3)no2)o1", 756],
  ["Cn1c(CN2CCN(C(=O)c3cc4ccccc4o3)CC2)nc2ccccc21", 580],
  ["O=C(NCCC1=CCCCC1)c1nc(Nc2ccccc2)c2ccccc2n1", 960],
  ["Cc1ccc(C(=O)N2CCC(C)CC2)cc1[N+](=O)[O-]", 830],
  ["COc1ccccc1NC(=O)c1cc(C(C)C)n2nccc2n1", 1180],
  ["CCOc1ccccc1-n1ccn(Cc2nc(-c3cccc(OC)c3)no2)c(=O)c1=O", 856],
  ["O=C(c1ccc2c(c1)OCO2)N1CCN(c2nnc3ccccn23)CC1", 616],
  ["CCCN1C(=O)COc2ccc(-c3noc(CNC(=O)Cc4ccc(Cl)cc4)n3)cc21", 1050],
  ["O=C(Nc1ccc(F)c(F)c1)c1cc(C2CC2)on1", 860],
  ["CN1C(=O)c2cccn2CC1C(=O)N1CCCCC1 (stereo unspecified)", 614],
  ["Cc1ccccc1Cc1nc(-c2cccc(-c3ccn[nH]3)c2)no1", 985],
  ["COc1ccc(NC(=O)c2cn3c(n2)CCCC3)c(OC)c1", 610],
  ["CN(C)C(=O)OCC1COc2ccccc2O1 (stereo unspecified)", 883],
  ["CCOc1ccc(S(=O)(=O)N2CCC(C(=O)Nc3ccc4c(c3)OCCO4)CC2)cc1", 903]
]}

The measured values listed here are drawn from the METLIN SMRT retention time set (Domingo-Almenara et al. 2019).
